Below, each of the molecules is paired with its reported log10(TGI) value.
system: RXF 393 renal; test: NCI tumour cell line growth inhibition, 48 h
In our notation, the value equals log10 of TGI in µM.

Example molecules with recorded log10(TGI):
For the molecule CN(C)c1cccc2c1C(=O)C=CC21c2ccc(N(C)C)c3c(N(C)C)ccc(c23)C(c2ccccc2)C1c1ccccc1 (stereo unspecified) , give its reported log10(TGI).
1.56

For the molecule COc1cc(/C=C2\CCC(C)/C(=C\c3cc(OC)c(OC)c(OC)c3)C2=O)cc(OC)c1OC (stereo unspecified) , give its reported log10(TGI).
0.80

For the molecule "Cc1cc(O)c(-c2cc(O)c(C)cc2O)cc1O" , give its reported log10(TGI).
0.77

For the molecule "CCOC(=O)c1sc2ncnc(N)c2c1C" , give its reported log10(TGI).
1.85

For the molecule O=C(c1cccs1)C1NO[N+]([O-])=C1c1cccs1 (stereo unspecified) , give its reported log10(TGI).
0.53

New cases:
For the molecule CCCCCCCCCCCCCCCCCCOCC(COCCOCC[N+]1(CCCCCC(=O)[O-])CCCC1)Oc1ncccn1 (stereo unspecified) , give its reported log10(TGI).
1.02

Origin of measurements: PubChem BioAssay (NCI)
